Target: CGRP receptor (SK-N-MC cell membranes) (Homo sapiens, UniProt O60894+Q16602)
Construct: endogenous in cells; host or cells: SK-N-MC cells (membrane homogenate)
Sequence (Q16602 23-461): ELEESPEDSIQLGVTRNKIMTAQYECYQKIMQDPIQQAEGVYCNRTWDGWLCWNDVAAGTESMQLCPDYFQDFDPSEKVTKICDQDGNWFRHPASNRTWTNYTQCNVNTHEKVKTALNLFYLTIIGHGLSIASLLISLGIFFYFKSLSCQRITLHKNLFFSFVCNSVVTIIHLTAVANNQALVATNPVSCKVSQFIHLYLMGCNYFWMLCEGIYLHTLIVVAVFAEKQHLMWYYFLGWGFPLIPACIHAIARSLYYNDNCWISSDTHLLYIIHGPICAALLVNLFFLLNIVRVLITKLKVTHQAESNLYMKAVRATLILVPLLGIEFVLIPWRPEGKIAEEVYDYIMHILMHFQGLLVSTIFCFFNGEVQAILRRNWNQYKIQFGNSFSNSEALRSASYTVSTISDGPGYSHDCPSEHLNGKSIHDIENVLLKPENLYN
Sequence (O60894 27-148): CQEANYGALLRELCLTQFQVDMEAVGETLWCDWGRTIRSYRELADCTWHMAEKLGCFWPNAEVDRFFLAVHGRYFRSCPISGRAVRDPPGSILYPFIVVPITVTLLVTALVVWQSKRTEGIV
Experiment: CGRP Binding Assay ([125I]-CGRP radioligand binding, SK-N-MC homogenate)
Details: displacement of [125I]-CGRP, SK-N-MC homogenate; read-out: CGRP binding IC50
Method: Tissue Culture. SK-N-MC cells were grown at 37° C. in 5% CO2 as a monolayer in medium consisting of MEM with Earle's salts and L-glutamine (Gibco) supplemented with 10% fetal bovine serum (Gibco). Cell Pellets. […] The cells were transferred from plates to polypropylene tubes (16×100 mm) and homogenized using a polytron. Homogenates were centrifuged at 32,000×g for 30 min. […] Radioligand Binding Assay. […] Protein bound radioactivity was determined using a gamma or scintillation counter.
Answer each item with its documented IC50.

Sample Cc1cc(CC(NC(=O)N2CCC(N3Cc4ccccc4NC3=O)CC2)C(=O)N2CCN(c3ccccn3)CC2)cc2cn[nH]c12 (racemic) [Example 22] — what was its IC50? < 10 nM

# repeat for CCC(CN1CCN(C(=O)C(Cc2ccc3[nH]ncc3c2)NC(=O)N2CCC(N3Cc4ccccc4NC3=O)CC2)CC1)C(C)C (stereo not shown) [Example 40i] 10 to 100 nM

Input O=C(O)C(Cc1ccc2[nH]ncc2c1)NC(=O)N1CCC(N2Cc3ccccc3NC2=O)CC1 (racemic) [Example 1] 100 to 1000 nM

Note, next up: CCC(C)CN1CCN(C(=O)C(Cc2ccc3[nH]ncc3c2)NC(=O)N2CCC(N3Cc4ccccc4NC3=O)CC2)CC1 (stereo not shown) [Example 40a] < 10 nM

Moving on to the next compound: O=C(N[C@@H](CC(=O)N1CCC(N2Cc3ccccc3NC2=O)CC1)C(=O)N1CCC(N2CCCCC2)CC1)Oc1ccc(F)cc1 [Example 131] 100 to 1000 nM

Consider next the compound Cc1cc(CC(NC(=O)N2CCC3(CC2)OC(=O)Nc2ccccc23)C(=O)N2CCC(N3CCCCC3)CC2)cc2cn[nH]c12 (racemic) [Example 25] in the same way. < 10 nM

Okay, and COC(=O)C(Cc1cc(C)c2[nH]ncc2c1)NC(=O)N1CCC2(CC1)NC(=O)Nc1ccccc12 (stereo not shown) [Example 13] ? 100 to 1000 nM
